This collection of values is drawn from ChEMBL document CHEMBL4382192.

Assay: Drug uptake in mouse lung at 2 mg/kg, iv after 2 hrs
Type: ADME, organism-based
Conditions: read-out: Drug uptake
quantityName: concentration at 2 h
Form field: result (number plus unit)

In: Need concentration at 2 h of `C=CC(=O)Nc1cc(Nc2ncc(Cl)c(Nc3ccccc3S(=O)(=O)C(C)C)n2)c(OC)cc1N(C)CCN(C)C` , thanks.
Out: 2360 nM

----------
Assay: Metabolic stability in human liver microsomes assessed as parent compound remaining at 1 uM after 30 mins in presence of NADPH by LC/MS/MS analysis
Type: ADME, Microsome
Conditions: read-out: Stability
quantityName: remaining at 0.5 h, 1 µM
Form field: result (number plus unit)

In: Need remaining at 0.5 h, 1 µM of `C=CC(=O)Nc1cc(Nc2ncc(F)c(Nc3ccccc3S(=O)(=O)N(C)C)n2)c(OC)cc1N(C)CCN(C)C` , thanks.
Out: 9%

In: Need remaining at 0.5 h, 1 µM of `C=CC(=O)Nc1cc(Nc2nccc(Nc3ccccc3S(=O)(=O)N(C)C)n2)c(OC)cc1N(C)CCN(C)C` , thanks.
Out: 10%

In: Need remaining at 0.5 h, 1 µM of `C=CC(=O)Nc1cc(Nc2ncc(I)c(Nc3ccccc3S(=O)(=O)N(C)C)n2)c(OC)cc1N(C)CCN(C)C` , thanks.
Out: 13%

In: Need remaining at 0.5 h, 1 µM of `C=CC(=O)Nc1cc(Nc2ncc(F)c(Nc3ccccc3S(=O)(=O)C(C)C)n2)c(OC)cc1N(C)CCN(C)C` , thanks.
Out: 26%

In: Need remaining at 0.5 h, 1 µM of `C=CC(=O)Nc1cc(Nc2ncc(Cl)c(Nc3ccccc3S(=O)(=O)C(C)C)n2)c(OC)cc1N(C)CCN(C)C` , thanks.
Out: 16%

In: Need remaining at 0.5 h, 1 µM of `C=CC(=O)Nc1cc(Nc2ncc(I)c(Nc3ccccc3P(C)(C)=O)n2)c(OC)cc1N(C)CCN(C)C` , thanks.
Out: 65%

In: Need remaining at 0.5 h, 1 µM of `C=CC(=O)Nc1cc(Nc2ncc(F)c(Nc3ccccc3P(C)(C)=O)n2)c(OC)cc1N(C)CCN(C)C` , thanks.
Out: 84%

In: Need remaining at 0.5 h, 1 µM of `C=CC(=O)Nc1cc(Nc2nccc(Nc3ccccc3P(C)(C)=O)n2)c(OC)cc1N(C)CCN(C)C` , thanks.
Out: 70%

----------
Test: Volume of distribution at steady state in mouse at 2 mg/kg, iv
Assay type: ADME, organism-based
Settings: in vivo, read-out: Vdss
quantityName: Vd (L/kg)
Use L/kg as the unit, but write only the number.

In: Need Vd of `C=CC(=O)Nc1cc(Nc2ncc(Cl)c(Nc3ccccc3S(=O)(=O)C(C)C)n2)c(OC)cc1N(C)CCN(C)C` , thanks.
Out: 2.66

----------
Molecular target: Tyrosine-protein kinase Blk (Homo sapiens)
Sequence (P51451 whole entry, the tested form may be a part): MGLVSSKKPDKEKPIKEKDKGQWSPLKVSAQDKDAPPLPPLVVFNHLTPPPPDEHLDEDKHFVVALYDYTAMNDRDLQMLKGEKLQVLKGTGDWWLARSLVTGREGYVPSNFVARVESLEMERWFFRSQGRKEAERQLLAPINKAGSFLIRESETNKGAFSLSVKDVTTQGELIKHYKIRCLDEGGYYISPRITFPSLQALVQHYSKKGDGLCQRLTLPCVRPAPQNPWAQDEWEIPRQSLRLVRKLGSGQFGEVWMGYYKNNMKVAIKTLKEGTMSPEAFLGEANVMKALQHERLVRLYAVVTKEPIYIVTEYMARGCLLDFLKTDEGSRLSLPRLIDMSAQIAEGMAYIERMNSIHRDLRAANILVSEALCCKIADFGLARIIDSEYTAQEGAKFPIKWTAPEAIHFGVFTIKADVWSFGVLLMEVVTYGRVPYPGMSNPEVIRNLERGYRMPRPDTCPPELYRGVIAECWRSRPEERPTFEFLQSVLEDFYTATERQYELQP
Assay: Inhibition of recombinant full length His-tagged human Blk cytoplasmic domain expressed in Baculovirus expression system by Z-LYTE assay
quantityName: IC50 (nM)
Use nM as the unit, but write only the number.

In: Need IC50 of `C=CC(=O)Nc1cc(Nc2ncc(Cl)c(Nc3ccccc3S(=O)(=O)C(C)C)n2)c(OC)cc1N(C)CCN(C)C` , thanks.
Out: 8

----------
Target: CYP1A2 (Homo sapiens, UniProt P05177)
Sequence (P05177 whole entry): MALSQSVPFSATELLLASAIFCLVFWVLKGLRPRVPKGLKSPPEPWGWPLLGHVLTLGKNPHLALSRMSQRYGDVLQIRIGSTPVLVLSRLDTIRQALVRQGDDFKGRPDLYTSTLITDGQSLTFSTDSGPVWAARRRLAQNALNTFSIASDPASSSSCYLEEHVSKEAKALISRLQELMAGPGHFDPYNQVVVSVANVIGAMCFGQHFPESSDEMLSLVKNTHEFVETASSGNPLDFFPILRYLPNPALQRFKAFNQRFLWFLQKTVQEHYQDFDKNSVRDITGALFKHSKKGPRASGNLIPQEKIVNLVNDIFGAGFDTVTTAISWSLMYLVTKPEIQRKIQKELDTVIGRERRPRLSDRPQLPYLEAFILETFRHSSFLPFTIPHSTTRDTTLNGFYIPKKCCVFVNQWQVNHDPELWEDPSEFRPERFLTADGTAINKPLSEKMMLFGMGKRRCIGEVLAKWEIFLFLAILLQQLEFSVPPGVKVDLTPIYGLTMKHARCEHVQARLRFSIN
Assay: Residual activity of CYP1A2 in human liver microsomes at 10 uM using phenacetin O-deethylase as substrate preincubated for 5 mins followed by NADPH addition measured after 15 mins by LC/MS/MS analysis relative to control
Conditions: probe phenacetin (O-deethylation)
quantityName: Activity at […], 10 µM (%)
Use % as the unit, but write only the number.

In: Provide the documented Activity at […], 10 µM with CYP1A2 (Homo sapiens, UniProt P05177) as the system for `C=CC(=O)Nc1cc(Nc2ncc(I)c(Nc3ccccc3S(=O)(=O)N(C)C)n2)c(OC)cc1N(C)CCN(C)C`
Out: 79

In: Provide the documented Activity at […], 10 µM with CYP1A2 (Homo sapiens, UniProt P05177) as the system for `C=CC(=O)Nc1cc(Nc2ncc(I)c(Nc3ccccc3P(C)(C)=O)n2)c(OC)cc1N(C)CCN(C)C`
Out: 91

In: Provide the documented Activity at […], 10 µM with CYP1A2 (Homo sapiens, UniProt P05177) as the system for `C=CC(=O)Nc1cc(Nc2ncc(I)c(Nc3ccccc3S(=O)(=O)C(C)C)n2)c(OC)cc1N(C)CCN(C)C`
Out: 81

In: Provide the documented Activity at […], 10 µM with CYP1A2 (Homo sapiens, UniProt P05177) as the system for `C=CC(=O)Nc1cc(Nc2ncc(F)c(Nc3ccccc3S(=O)(=O)C(C)C)n2)c(OC)cc1N(C)CCN(C)C`
Out: 91

In: Provide the documented Activity at […], 10 µM with CYP1A2 (Homo sapiens, UniProt P05177) as the system for `C=CC(=O)Nc1cc(Nc2nccc(Nc3ccccc3P(C)(C)=O)n2)c(OC)cc1N(C)CCN(C)C`
Out: 84

In: Provide the documented Activity at […], 10 µM with CYP1A2 (Homo sapiens, UniProt P05177) as the system for `C=CC(=O)Nc1cc(Nc2nccc(Nc3ccccc3S(=O)(=O)N(C)C)n2)c(OC)cc1N(C)CCN(C)C`
Out: 82
